// reported pIC50 per item
# System Under Test: human EP3 receptor (Homo sapiens, UniProt P43115)
# Sequence (P43115 whole entry): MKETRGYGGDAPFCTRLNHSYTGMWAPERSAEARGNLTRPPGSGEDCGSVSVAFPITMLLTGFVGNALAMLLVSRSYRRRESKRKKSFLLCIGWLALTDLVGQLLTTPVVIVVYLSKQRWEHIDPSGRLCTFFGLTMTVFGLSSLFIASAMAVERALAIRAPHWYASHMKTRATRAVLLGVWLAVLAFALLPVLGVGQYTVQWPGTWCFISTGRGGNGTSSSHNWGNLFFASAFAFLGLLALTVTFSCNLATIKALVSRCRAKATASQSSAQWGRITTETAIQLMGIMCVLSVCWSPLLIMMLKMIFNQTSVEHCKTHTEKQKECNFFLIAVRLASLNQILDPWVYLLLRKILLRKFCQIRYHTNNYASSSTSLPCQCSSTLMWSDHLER
# Procedure Details: Cellular in vitro assay for determining EP3 receptor activity (human EP3 cell line, sulprostone-stimulated calcium luminescence)
# Assay Context: CHO cells expressing human EP3 and mitochondrial Clytin; antagonist mode, sulprostone at EC50; read-out: EP3 CHO mtCLY ANTAG IC50
pIC50: −log10 of the molar value.

{"Compound": "Cc1cccc2ncc(-c3cn4nc(C(=O)NC(C)c5ccccn5)c(C(C)C)c4c(=O)[nH]3)cc12 (centres unmarked)", "System Under Test": "human EP3 receptor (Homo sapiens, UniProt P43115)", "pIC50": 8.70}
{"Compound": "COC[C@@H](C)NC(=O)c1nn2cc(-c3ccc4ccccc4c3)[nH]c(=O)c2c1C(F)(F)F", "System Under Test": "human EP3 receptor (Homo sapiens, UniProt P43115)", "pIC50": 8.36}
{"Compound": "COc1cccc(CNC(=O)c2cc3c(=O)[nH]c(-c4ccc5ccccc5c4)cn3n2)c1", "System Under Test": "human EP3 receptor (Homo sapiens, UniProt P43115)", "pIC50": 8.94}
{"Compound": "Cc1c(C(=O)NC(c2ccc(F)cc2)C(C)C)nn2c(C)c(-c3ccc4ccccc4c3)[nH]c(=O)c12 (centres unmarked)", "System Under Test": "human EP3 receptor (Homo sapiens, UniProt P43115)", "pIC50": 8.40}
{"Compound": "Cc1ccc(-c2cn3nc(C(=O)NC(C)(C)c4ccc(F)cc4)cc3c(=O)[nH]2)cc1C", "System Under Test": "human EP3 receptor (Homo sapiens, UniProt P43115)", "pIC50": 8.59}
{"Compound": "C[C@@H](NC(=O)c1cc2c(=O)[nH]c(-c3ccc4c(c3)CCCC4)cn2n1)c1ccc(F)cc1", "System Under Test": "human EP3 receptor (Homo sapiens, UniProt P43115)", "pIC50": 8.77}
{"Compound": "Cc1cc(-c2cn3nc(C(=O)N[C@H](CCO)c4ccc(F)cc4)c(C(F)(F)F)c3c(=O)[nH]2)ccc1Cl", "System Under Test": "human EP3 receptor (Homo sapiens, UniProt P43115)", "pIC50": 9.43}
{"Compound": "Cc1ccc(-c2cn3nc(C(=O)NCCC(O)C(F)(F)F)c(C4CC4)c3c(=O)[nH]2)cc1F (single isomer, unassigned) [6-367]", "System Under Test": "human EP3 receptor (Homo sapiens, UniProt P43115)", "pIC50": 9.16}
{"Compound": "Cc1cccc2ncc(-c3cn4nc(C(=O)NC(C)c5ccc(Cl)cc5Cl)c(C(C)C)c4c(=O)[nH]3)cc12 (centres unmarked)", "System Under Test": "human EP3 receptor (Homo sapiens, UniProt P43115)", "pIC50": 8.20}
{"Compound": "Cc1cccc2ncc(-c3cn4nc(C(=O)NC5CCOC5)c(C(C)C)c4c(=O)[nH]3)cc12 (centres unmarked)", "System Under Test": "human EP3 receptor (Homo sapiens, UniProt P43115)", "pIC50": 8.71}
{"Compound": "Cc1ccc(-c2cn3nc(C(=O)NC(C)C(O)C(F)(F)F)cc3c(=O)[nH]2)cc1C (centres unmarked)", "System Under Test": "human EP3 receptor (Homo sapiens, UniProt P43115)", "pIC50": 8.24}
